target: human B7-H3 (4Ig) protein (his tag) (human) (UniProt Q5ZPR3)
experiment_summary: SPR (Biacore T200), antibody captured on Protein A chip, B7-H3 injected, 1:1 model

binder | koff (s⁻¹)
294A3C4 (antibody, V domains shown) VH: QVQLQQPGAELVKPGASVKLSCKASGYTFTSYWMHWVKQRPGQGLEWIGMFHPNSGTTNYNEKFKSKATLTVDKSSSTAYMQLSSLTSEDSAVYYCARRLGIFFDYWGQGTTLTVSS VL: DIVMTQSPSSLTVTAGEKVTMSCRSSQSLLNSGNQKNYLTWYQQKPGQPPKLLIYWASTRDSGVPDRFTGSGSGTDFTLTISSVQTEDLAVYYCQTDYSYPFTFGSGTKLEIK | 0.00135
AHP06345 (antibody, V domains shown) VH: QVQLVQSGAEVKKPGESLRISCKGSGYSFTSYWISWVRQMPGKGLEWMGRIDPSDSYTNYSPSFQGHVTISADKSISTAYLQWSSLKASDTAMYYCARHTGYYGSGIGMDVWGQGTLVTVSS VL: HVILTQPPSVSAAPGQKVTISCSGSSSNIGNNYVSWYRQLPGTAPKLLIYDNNQRPSGIPDRFSGSKSGTSATLGITGLQTGDEADYYCATWDSSLGVVVFGGRTKLTVL | 0.000254
106A5B3 (antibody, V domains shown) VH: EVQLVESGGDLVKPGGSLKLSCAASGFTFSSYGMSWVRQTPDKRLEWVATISSGGSYIYYPDSMKGRFTISRDNAKNTLYLQMSSLQSEDTAIYYCASDYGSRYFDYWGQGTTLTVSS VL: QIVLTQSPAIMSASPGEKVTMTCSASSSVIYMSWYKQKPGSSPRLLIYDTSNLASGVPVRFSGSGSGTSYSLTISRMEAEDAATYYCQQWSSYPRTFGGGTKLEIK | 0.000396
